# Tested on: in vivo angiogenesis, blood vessel count
# protocol: reduction of blood vessel formation in vivo – HTS, in vivo study (AID 732);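 further: zebrafish embryos dosed at one day post fertilization; 0% = reference inhibitor and 100% = plate mean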
# condition.details: active compounds read low;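 tested at 30 µM in the well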
measurement.kind: vessel count % control (%)
Please give a number only; it is taken to be in %.

Example compounds with recorded vessel count % control:
compound	vessel count % control (%)
NC12CC3CC(CC(C3)C1)C2	110
O=Nc1c(-c2c(O)[nH]c3ccc(Cl)cc23)[nH]c2ccccc12	88.2
N[C@@H](Cc1ccc(O)c(O)c1)C(=O)O	118
NC(N)=Nc1ccc2[nH]c3c(c2c1)C[C@@]1(O)[C@H]2Cc4ccc(O)c5c4[C@@]1(CCN2CC1CC1)[C@H]3O5	101
N#C/C(=C\c1ccc(O)c(O)c1)C(=O)c1ccc(O)c(O)c1	124

(Q) Using known records, supply vessel count % control for CC(C)NC[C@H](O)COc1ccc(CC(N)=O)cc1
(A) 86.6

(Q) Using known records, supply vessel count % control for COc1ccccc1N1CCN(CCCCNS(=O)(=O)c2cccc3c(N(C)C)cccc23)CC1
(A) 67.5

(Q) Using known records, supply vessel count % control for CC(=O)NCCc1ccc(O)c(O)c1
(A) 105

(Q) Using known records, supply vessel count % control for CCN1CCc2nc(N)oc2CC1
(A) 96.4

(Q) Using known records, supply vessel count % control for c1ccc(C2CN3CCSC3=N2)cc1 (stereo unspecified)
(A) 95.6

(Q) Using known records, supply vessel count % control for N[C@@H](CCl)C(=O)O
(A) 101

(Q) Using known records, supply vessel count % control for CC#CCOC(=O)c1c(C)nc2sc3c(c2c1N)CCC(O)C3 (stereo unspecified)
(A) 116

(Q) Using known records, supply vessel count % control for O=Nc1ccc2oc(=O)ccc2c1
(A) 95

(Q) Using known records, supply vessel count % control for O=C1C(c2c(O)[nH]c3ccc(S(=O)(=O)O)cc23)=Nc2ccccc21
(A) 101

(Q) Using known records, supply vessel count % control for O=C(OC1CCN(CCCl)CC1)C(c1ccccc1)c1ccccc1
(A) 102

(Q) Using known records, supply vessel count % control for O=C(O)[C@@H]1C[C@H](C(=O)O)N1
(A) 59.7

(Q) Using known records, supply vessel count % control for CC(Cc1ccc(O)cc1)NCC(O)c1cc(O)cc(O)c1 (stereo unspecified)
(A) 114

(Q) Using known records, supply vessel count % control for CCN(CC)CC#CCOC(=O)C(O)(c1ccccc1)C1CCCCC1 (stereo unspecified)
(A) 125

(Q) Using known records, supply vessel count % control for CN[C@H](CC(C)C)C(=O)N[C@H]1C(=O)N[C@@H](CC(N)=O)C(=O)N[C@H]2C(=O)N[C@H]3C(=O)N[C@H](C(=O)N[C@H](C(=O)O)c4cc(O)cc(O)c4-c4cc3ccc4O)[C@H](O)c3ccc(c(Cl)c3)Oc3cc2cc(c3O[C@@H]2O[C@H](CO)[C@@H](O)[C@H](O)[C@H]2O[C@H]2C[C@](C)(N)[C@H](O)[C@H](C)O2)Oc2ccc(cc2Cl)[C@H]1O
(A) 103

(Q) Using known records, supply vessel count % control for C=CCN1CCc2c(cc(O)c(O)c2Br)[C@@H](c2ccccc2)C1
(A) 85

(Q) Using known records, supply vessel count % control for C[C@H]1O[C@@H](n2cc(F)c(=O)[nH]c2=O)[C@H](O)[C@@H]1O
(A) 108

* * *

# Tested on: in vivo angiogenesis, blood vessel count
# protocol: reduction of blood vessel formation in vivo – HTS, in vivo study (AID 732)
# condition.details: active compounds read low;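 tested at 30 µM in the well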
List of vessel count % control values.
Please give a number only; it is taken to be in %.

Example molecules with recorded vessel count % control:
> print(dat)
                                   molecule        measurement.kind  scale.unit   val
1  COc1ccc2c(c1O)-c1cccc3c1[C@@H](C2)N(C)CC3  vessel count % control           %  90.5
2  CCCCCCCCCCCCCCCCCC(=O)OC(CC(=O)O)C[N+](C)(C)C (stereo unspecified)  vessel count % control           %  71.9
3  CC(=O)O[C@]1(C(C)=O)CC[C@H]2[C@@H]3C=C(Cl)C4=CC(=O)[C@@H]5C[C@@H]5[C@]4(C)[C@H]3CC[C@@]21C  vessel count % control           %  71.2

(Q) Using known records, supply vessel count % control for CCCCc1oc2ccccc2c1C(=O)c1cc(I)c(OCCN(CC)CC)c(I)c1
(A) 120

(Q) Using known records, supply vessel count % control for CCN(CC)C(=O)N[C@@H]1C=C2c3cccc4[nH]cc(c34)C[C@H]2N(C)C1
(A) 75.3

(Q) Using known records, supply vessel count % control for O=C(/C=C/c1ccc(O)c(O)c1)OCCc1ccccc1
(A) 0

(Q) Using known records, supply vessel count % control for COc1cc(C(O)CO)ccc1O (stereo unspecified)
(A) 96.8

(Q) Using known records, supply vessel count % control for O=C1CC[C@@]2(O)C3Cc4ccc(O)c5c4C2(CCN3CC2CC2)[C@H]1O5 (stereo partly specified)
(A) 73.7

(Q) Using known records, supply vessel count % control for Cn1c(=O)c2[nH]c(C3CCCC3)nc2n(C)c1=O
(A) 104

(Q) Using known records, supply vessel count % control for CCCCCCCC/C=C\CCCCCCCC(=O)NCCO
(A) 102

(Q) Using known records, supply vessel count % control for CN(C)CCCC1(c2ccc(F)cc2)OCc2cc(C#N)ccc21 (stereo unspecified)
(A) 99.8

* * *

List of vessel count % control values.
# System: in vivo angiogenesis, blood vessel count
# protocol: reduction of blood vessel formation in vivo – HTS, in vivo study (AID 732);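 further: zebrafish embryos dosed at one day post fertilization; 0% = reference inhibitor and 100% = plate mean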
# condition.details: active compounds read low;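 tested at 30 µM in the well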
Please give a number only; it is taken to be in %.

Example compounds with recorded vessel count % control:
> print(dat)
                                   compound  scale.unit  val
1                            NCCCNCCCCNCCCN           %  115
2  CC(O)C(O)[C@H]1CNc2nc(N)[nH]c(=O)c2N1 (some centres not stated)           %  125

(Q) Using known records, supply vessel count % control for N[C@@H](CCCC(=O)O)C(=O)O
(A) 130

(Q) Using known records, supply vessel count % control for C[N+](C)(C)CCOC(=O)CCC(=O)OCC[N+](C)(C)C
(A) 94.4

(Q) Using known records, supply vessel count % control for Cc1cccc(C)c1OCC(C)N (configuration not stated)
(A) 99.4

(Q) Using known records, supply vessel count % control for Clc1cccc(Cl)c1NC1=NCCN1
(A) 121

(Q) Using known records, supply vessel count % control for COc1cc(/C=C(\C#N)C(=O)c2ccc(O)c(O)c2)cc(I)c1O
(A) 94.3

* * *

List of vessel count % control values.
# Test system: in vivo angiogenesis, blood vessel count
# protocol: reduction of blood vessel formation in vivo – HTS, in vivo study (AID 732);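 further: zebrafish embryos dosed at one day post fertilization; 0% = reference inhibitor and 100% = plate mean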
# condition.details: active compounds read low;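 tested at 30 µM in the well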
Please give a number only; it is taken to be in %.

compound	vessel count % control (%)
C(=C\c1ccccc1)/CN1CCN(C(c2ccccc2)c2ccccc2)CC1	88.9
NNC(=O)c1ccc(O)cc1	97.5

(Q) Using known records, supply vessel count % control for N#C/C(=C\c1ccc(O)c(O)c1)C(=O)NCc1ccccc1
(A) 95.6

(Q) Using known records, supply vessel count % control for CCCn1c(=O)c2c(ncn2C)n(CCC)c1=O
(A) 98.7

(Q) Using known records, supply vessel count % control for NCC(O)(CS(=O)(=O)O)c1ccc(Cl)cc1 (centres undefined)
(A) 94.5

(Q) Using known records, supply vessel count % control for CC(=O)OCC1=C(C(=O)O)N2C(=O)[C@@H](NC(=O)CSc3ccncc3)[C@H]2SC1
(A) 97.3

(Q) Using known records, supply vessel count % control for CC1=NN=C(c2ccc(N)cc2)c2cc3c(cc2C1)OCO3
(A) 96.1

* * *

# Tested on: in vivo angiogenesis, blood vessel count
# protocol: reduction of blood vessel formation in vivo – HTS, in vivo study (AID 732);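 further: zebrafish embryos dosed at one day post fertilization; 0% = reference inhibitor and 100% = plate mean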
# condition.details: active compounds read low;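 tested at 30 µM in the well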
Lab note: cut-off is 90%. Strictly less in vessel count % control is T. Exactly 90% or more is F.

Solved cases below.
> print(dat)
                                   compound                                    target  answer.label
1  O=c1[nH]c2ccccc2n1C1CCN(CCCC(c2ccc(F)cc2)c2ccc(F)cc2)CC1  in vivo angiogenesis, blood vessel count             T
2  Oc1[nH]c2ccccc2c1C1=Nc2ccc(Br)cc2/C1=N\OCCBr  in vivo angiogenesis, blood vessel count             T
3  OC1(c2ccc(Cl)cc2)CCN(Cc2c[nH]c3ccccc23)CC1  in vivo angiogenesis, blood vessel count             F
4  CC(=O)OC(C)C[N+](C)(C)C (stereo unspecified)  in vivo angiogenesis, blood vessel count             T

(Q) Lab note: vessel count % control threshold 90%. Does this compound come in strictly under it? NCCc1c[nH]c2ccc(O)cc12
(A) T

(Q) Lab note: vessel count % control threshold 90%. Does this compound come in strictly under it? CCCOC(=O)c1c(-c2ccccc2)nc(CC)c(C(=O)SCC)c1CCC
(A) F
